tested on: aptamer for AMP (Apt) (DNA, aptamer) GCGGGCGGTTGTATAGCGG; assay: fluorescence recovery by release of TPE-Am; conditions: 99% PBS (PBS:DMSO), pH 7.4, 25 °C; TPE-Am displacement; aptamer 500 nM; highest tested 100 nM
Observation type: binding

| Smiles input | Observation type | Observed |
| --- | --- | --- |
| CN(C)[C@@H]1C(=O)C(C(N)=O)=C(O)[C@@]2(O)C(=O)C3=C(O)c4c(O)cccc4[C@@](C)(O)[C@H]3C[C@@H]12 | binding | no |
| O=[N+]([O-])N=C1NCCN1Cc1ccc(Cl)nc1 | binding | no |
| O=C(N[C@H](CO)[C@H](O)c1ccc([N+](=O)[O-])cc1)C(Cl)Cl | binding | no |
| CC[C@H]1OC(=O)[C@H](C)[C@@H](O[C@H]2C[C@@](C)(OC)[C@@H](O)[C@H](C)O2)[C@H](C)[C@@H](O[C@@H]2O[C@H](C)C[C@H](N(C)C)[C@H]2O)[C@](C)(O)C[C@@H](C)/C(=N\OCOCCOC)[C@H](C)[C@@H](O)[C@]1(C)O | binding | no |

Origin of values: paper PMC10216731
